Numbers sourced from ChEMBL document CHEMBL1138906.

# ASSAYED_SYSTEM: Methionine aminopeptidase 2 (Homo sapiens)
# EXPERIMENT_SUMMARY: Inhibition of MetAP2 in presence of 40 mg/ml human serum albumin
OUTCOME_MEASURE: pIC50
Reminder that pIC50 is minus the log10 of a molar concentration.

Item O=C(O)c1c(NS(=O)(=O)c2ccccc2)ccc2ccccc12 : provide pIC50
5.42

* * *

# EXPERIMENT_SUMMARY: Protein binding in rat plasma at 10 uM at pH 7.4
# Format: ADME, cell-free
# TEST_CONTEXT: read-out: PPB (converted)
OUTCOME_MEASURE: fraction unbound at 10 µM
No unit in the answer, please; the number alone is enough.

Find the measured fraction unbound at 10 µM of O=C(O)c1c(NS(=O)(=O)c2ccccc2)ccc2ccccc12 and report it.
0.002

Let me know recorded fraction unbound at 10 µM for Cc1ccc(NS(=O)(=O)c2ccc(Cl)cc2)c(C(=O)O)c1 , thanks.
0.019

In one line, give reported fraction unbound at 10 µM of the entry O=C(O)c1c(NS(=O)(=O)c2ccc(F)cc2)ccc2ccccc12 .
0.008

Give fraction unbound at 10 µM for the following compound: Cc1ccc(NS(=O)(=O)c2ccccc2)c(C(=O)O)c1
0.003

Kindly indicate its recorded fraction unbound at 10 µM. Item: CCc1ccc(NS(=O)(=O)c2ccccc2)c(C(=O)O)c1
0.002

* * *

# ASSAYED_SYSTEM: Methionine aminopeptidase 2 (Homo sapiens, UniProt P50579)
# Sequence (P50579 whole entry): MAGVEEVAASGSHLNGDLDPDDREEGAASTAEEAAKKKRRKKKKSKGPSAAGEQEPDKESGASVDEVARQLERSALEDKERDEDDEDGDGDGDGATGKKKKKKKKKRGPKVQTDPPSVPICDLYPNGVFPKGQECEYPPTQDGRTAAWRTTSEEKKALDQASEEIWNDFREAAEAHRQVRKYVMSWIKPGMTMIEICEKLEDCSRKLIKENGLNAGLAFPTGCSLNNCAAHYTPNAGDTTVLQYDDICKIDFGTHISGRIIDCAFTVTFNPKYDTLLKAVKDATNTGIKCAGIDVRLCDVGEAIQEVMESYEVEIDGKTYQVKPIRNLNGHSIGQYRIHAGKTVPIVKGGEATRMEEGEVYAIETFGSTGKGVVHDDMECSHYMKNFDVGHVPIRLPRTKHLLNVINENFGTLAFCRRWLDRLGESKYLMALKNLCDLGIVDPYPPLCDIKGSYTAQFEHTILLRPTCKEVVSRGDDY
# EXPERIMENT_SUMMARY: Inhibition of MetAP2
OUTCOME_MEASURE: pIC50
Please report pIC50 as the negative decimal logarithm of the molar concentration, giving only the number.

System Methionine aminopeptidase 2 (Homo sapiens, UniProt P50579). Read-out pIC50. Item O=C(O)c1c(NS(=O)(=O)c2ccccc2)ccc2ccccc12 . Report value.
7.72

Find pIC50 for O=C(O)c1cc(Br)ccc1NS(=O)(=O)c1cccc2nsnc12 on Methionine aminopeptidase 2 (Homo sapiens, UniProt P50579) and write it down.
5.41

* * *

# ASSAYED_SYSTEM: Methionine aminopeptidase (Pyrococcus furiosus (strain ATCC 43587 / DSM 3638 / JCM 8422 / Vc1), UniProt P56218)
# Sequence (P56218 whole entry): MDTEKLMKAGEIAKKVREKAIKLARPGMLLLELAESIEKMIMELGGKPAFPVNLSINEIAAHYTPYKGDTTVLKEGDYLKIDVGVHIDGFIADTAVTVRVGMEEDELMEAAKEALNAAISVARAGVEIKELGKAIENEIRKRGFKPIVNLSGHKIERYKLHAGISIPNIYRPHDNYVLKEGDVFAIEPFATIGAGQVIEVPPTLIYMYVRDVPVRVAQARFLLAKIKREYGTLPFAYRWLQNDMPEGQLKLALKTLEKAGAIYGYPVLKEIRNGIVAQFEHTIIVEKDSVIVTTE
# EXPERIMENT_SUMMARY: Inhibition of Pyrococcus furiosus MetAP
OUTCOME_MEASURE: IC50

Note down IC50 recorded for O=C(O)c1c(NS(=O)(=O)c2ccccc2)ccc2ccccc12
> 100 µM

* * *

pIC50: −log10 of the molar value.
OUTCOME_MEASURE: pIC50

Give pIC50 for this entry on Aminopeptidase N (Homo sapiens): O=C(O)c1c(NS(=O)(=O)c2ccccc2)ccc2ccccc12
Sequence (P15144 whole entry): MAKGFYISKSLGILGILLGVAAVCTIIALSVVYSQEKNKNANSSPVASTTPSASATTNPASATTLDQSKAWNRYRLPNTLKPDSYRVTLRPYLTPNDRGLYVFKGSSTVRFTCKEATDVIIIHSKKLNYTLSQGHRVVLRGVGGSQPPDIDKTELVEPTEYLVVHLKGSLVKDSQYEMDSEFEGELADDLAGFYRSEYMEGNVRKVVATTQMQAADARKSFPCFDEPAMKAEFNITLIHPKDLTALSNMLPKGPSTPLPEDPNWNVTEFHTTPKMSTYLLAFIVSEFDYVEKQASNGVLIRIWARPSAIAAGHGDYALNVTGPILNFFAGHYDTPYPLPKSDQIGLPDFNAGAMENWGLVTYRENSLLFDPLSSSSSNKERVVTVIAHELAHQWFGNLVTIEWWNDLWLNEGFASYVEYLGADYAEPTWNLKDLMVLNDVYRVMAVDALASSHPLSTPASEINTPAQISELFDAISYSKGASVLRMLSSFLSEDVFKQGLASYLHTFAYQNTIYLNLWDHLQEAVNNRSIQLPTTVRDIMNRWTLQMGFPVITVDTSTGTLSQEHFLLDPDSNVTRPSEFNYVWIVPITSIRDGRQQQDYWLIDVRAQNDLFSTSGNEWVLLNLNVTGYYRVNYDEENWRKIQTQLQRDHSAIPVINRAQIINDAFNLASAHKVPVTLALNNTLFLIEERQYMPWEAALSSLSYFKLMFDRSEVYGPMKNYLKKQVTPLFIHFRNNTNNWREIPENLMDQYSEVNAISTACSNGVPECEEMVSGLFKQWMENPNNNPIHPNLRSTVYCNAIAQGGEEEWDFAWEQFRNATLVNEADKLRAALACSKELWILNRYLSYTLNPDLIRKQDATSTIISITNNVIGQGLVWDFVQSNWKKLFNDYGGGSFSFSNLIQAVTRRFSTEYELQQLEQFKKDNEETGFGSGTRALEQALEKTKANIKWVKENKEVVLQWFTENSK
< 4.00
